# TEST_SYSTEM: IRAK4 (Homo sapiens (Human), UniProt Q9NWZ3)
# Sequence (Q9NWZ3 whole entry): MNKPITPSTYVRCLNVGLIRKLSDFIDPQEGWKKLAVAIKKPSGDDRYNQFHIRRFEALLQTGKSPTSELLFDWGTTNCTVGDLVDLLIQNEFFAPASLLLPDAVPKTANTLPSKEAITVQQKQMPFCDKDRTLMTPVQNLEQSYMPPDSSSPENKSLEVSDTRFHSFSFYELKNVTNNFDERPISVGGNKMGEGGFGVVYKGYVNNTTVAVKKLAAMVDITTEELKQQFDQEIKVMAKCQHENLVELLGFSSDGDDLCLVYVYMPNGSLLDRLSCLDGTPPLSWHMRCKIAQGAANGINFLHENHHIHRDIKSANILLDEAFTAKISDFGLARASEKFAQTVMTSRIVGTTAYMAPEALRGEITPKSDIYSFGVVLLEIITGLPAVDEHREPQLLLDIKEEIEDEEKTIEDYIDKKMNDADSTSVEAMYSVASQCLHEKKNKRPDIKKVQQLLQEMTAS
# TEST_NAME: IRAK4 enzyme assay (mass spectrometry readout)
# Format: biochemical
# EXPERIMENTAL_CONDITIONS: human recombinant IRAK4 0.2 nM, 3 mM ATP; geometric mean of at least 2 experiments
MEASURED_PROPERTY: IC50 (nM)

Data request: What value of IC50 has been reported for the following compound? "COc1cc2nn([C@H]3CC[C@H](n4cncn4)CC3)cc2cc1C(=O)Nc1cccn(C)c1=O"
Data returned: 2.2

Data request: Further, for "COc1cc2nn([C@H]3CC[C@H](N(C)C(=O)[C@@H](C)O)CC3)cc2cc1C(=O)Nc1cccn(CC#N)c1=O" ?
Data returned: 1.4

Data request: Further, for "COc1cc2nn([C@H]3CC[C@H](n4ccnn4)CC3)cc2cc1C(=O)Nc1cccn(C)c1=O" ?
Data returned: 1.5

Data request: Further, for "COc1cc2nn([C@H]3CC[C@H](N(C)C(C)=O)CC3)cc2cc1C(=O)Nc1cccn(C)c1=O" ?
Data returned: 1.1

a. COc1cc2nn([C@@H]3CC[C@H](N(C)C(C)=O)C[C@@H]3C)cc2cc1C(=O)Nc1cccn(C)c1=O (single isomer, unassigned) [Example 7]
b. COc1cc2nn([C@H]3CC[C@H](N(C)C(=O)[C@@H](C)O)CC3)cc2cc1C(=O)Nc1cccn(C)c1=O
c. COc1cc2nn(C3CCC(c4cccnn4)CC3)cc2cc1C(=O)Nc1cccn(C)c1=O (single isomer, unassigned) [Example 23]
Data request: Put the items in order so that reported IC50 rises from first to last. Answer by naming the labels in the order asked.
Data returned: b, c, a
(b: 0.8 nM, c: 5 nM, a: 459 nM)

----------
# TEST_SYSTEM: IRAK4 (Homo sapiens (Human))
# TEST_NAME: IRAK4 enzyme assay (mass spectrometry readout)
# Assay type: biochemical
# EXPERIMENTAL_CONDITIONS: human recombinant IRAK4 0.2 nM, 3 mM ATP; geometric mean of at least 2 experiments
MEASURED_PROPERTY: IC50 (nM)

Data request: What value of IC50 has been reported for the following compound? COc1cc2nn([C@H]3CC[C@H](N4CCCC4=O)CC3)cc2cc1C(=O)Nc1cccn(C)c1=O [Example 18]
Data returned: 1

A. COc1cc2nn([C@H]3CC[C@H](N(C)C(=O)[C@@H](C)O)CC3)cc2cc1C(=O)Nc1cccn(-c2cn(C)nn2)c1=O [Example 16]
B. COc1cc2nn([C@@H]3CC[C@@H](N(C)C(C)=O)C[C@@H]3C)cc2cc1C(=O)Nc1cccn(C)c1=O [Example 4]
C. COc1cc2nn([C@H]3CC[C@H](N(C)C(=O)[C@@H](C)O)CC3)cc2cc1C(=O)Nc1cccn(-c2cn[nH]c2)c1=O [Example 14]
D. COc1cc2nn([C@H]3CC[C@H](n4ccnc4C(C)O)CC3)cc2cc1C(=O)Nc1cccn(C)c1=O (single isomer, unassigned) [Example 29]
Data request: Put the items in order so that reported IC50 rises from first to last. Answer by naming the labels in the order asked.
Data returned: C, D, A, B

1. COc1cc2nn([C@H]3CC[C@H](N4CCN(C)C4=O)CC3)cc2cc1C(=O)Nc1cccn(C)c1=O [Example 19]
2. COc1cc2nn([C@H]3CC[C@]4(CC3)COC(=O)N4C)cc2cc1C(=O)Nc1cccn(C)c1=O [Example 21]
Data request: Sorting by IC50 in descending order, would 1 or 2 appear first? Respond with the label that goes with your answer.
Data returned: 1
(1: 0.9 nM, 2: 0.4 nM)

----------
# TEST_SYSTEM: IRAK4 (Homo sapiens (Human), UniProt Q9NWZ3)
# TEST_NAME: IRAK4 phosphorylation cell assay (IL-1β-stimulated Karpas-299 cells)
# Type: cell-based
# EXPERIMENTAL_CONDITIONS: IRAK4 auto-phosphorylation (pIRAK4 Thr345/Ser346) in IL-1β-stimulated Karpas-299 cells; geometric mean of at least 2 experiments
MEASURED_PROPERTY: IC50 (nM)

a. COc1cc2nn([C@H]3CC[C@H](N4CCCC4=O)CC3)cc2cc1C(=O)Nc1cccn(C)c1=O [Example 18]
b. COc1cc2nn(C3CCC(c4cccnn4)CC3)cc2cc1C(=O)Nc1cccn(C)c1=O (single isomer, unassigned) [Example 23]
c. COc1cc2nn([C@@H]3CC[C@H](N(C)C(C)=O)C[C@@H]3C)cc2cc1C(=O)Nc1cccn(C)c1=O (single isomer, unassigned) [Example 6]
d. COc1cc2nn([C@H]3CC[C@H](n4ccnc4C(C)O)CC3)cc2cc1C(=O)Nc1cccn(C)c1=O (single isomer, unassigned) [Example 29]
Data request: Put the entries in order of IC50, starting with the largest number. Answer by naming the labels in the order asked.
Data returned: c, b, a, d

P. COc1cc2nn([C@H]3CC[C@H](n4ccnn4)CC3)cc2cc1C(=O)Nc1cccn(C)c1=O [Example 27]
Q. COc1cc2nn([C@H]3CC[C@H](n4ccccc4=O)CC3)cc2cc1C(=O)Nc1cccn(C)c1=O [Example 22]
R. COc1cc2nn([C@@H]3CCC(N(C)C(C)=O)C[C@H]3C)cc2cc1C(=O)Nc1cccn(C)c1=O (single isomer, unassigned) [Example 2]
Data request: Put the items in order so that reported IC50 rises from first to last. Answer by naming the labels in the order asked.
Data returned: Q, P, R

A. COc1cc2nn([C@H]3CC[C@H](n4cncn4)CC3)cc2cc1C(=O)Nc1cccn(C)c1=O [Example 26]
B. COc1cc2nn([C@H]3CC[C@H](N(C)C(=O)[C@H](C)O)CC3)cc2cc1C(=O)Nc1cccn(C2CC2)c1=O [Example 11]
C. COc1cc2nn([C@H]3CC[C@H](N(C)C(=O)[C@@H](C)O)CC3)cc2cc1C(=O)Nc1cccn(CF)c1=O [Example 9]
D. COc1cc2nn([C@@H]3CC[C@H](N(C)C(C)=O)C[C@@H]3C)cc2cc1C(=O)Nc1cccn(C)c1=O (single isomer, unassigned) [Example 7]
Data request: Put the items in order so that reported IC50 rises from first to last. Answer by naming the labels in the order asked.
Data returned: C, B, A, D

I. COc1cc2nn([C@H]3CC[C@H](N(C)C(=O)[C@@H](C)O)CC3)cc2cc1C(=O)Nc1cccn(-c2cnn(C)c2)c1=O [Example 15]
II. COc1cc2nn(C3CCC(c4cccnn4)CC3)cc2cc1C(=O)Nc1cccn(C)c1=O (single isomer, unassigned) [Example 24]
Data request: Looking only at measured IC50, which entry is lower, I or II ? Respond with the label that goes with your answer.
Data returned: II
(II: 17 nM, I: 35 nM)

P. COc1cc2nn([C@H]3CC[C@H](n4ccnc4C(C)O)CC3)cc2cc1C(=O)Nc1cccn(C)c1=O (single isomer, unassigned) [Example 28]
Q. COc1cc2nn([C@H]3CC[C@]4(CC3)COC(=O)N4C)cc2cc1C(=O)Nc1cccn(C)c1=O [Example 21]
R. COc1cc2nn([C@H]3CC[C@H](c4nnco4)CC3)cc2cc1C(=O)Nc1cccn(C)c1=O [Example 25]
Data request: Order the 3 compounds from highest to lowest IC50. Answer by naming the labels in the order asked.
Data returned: R, P, Q
(R: 45 nM, P: 31 nM, Q: 20 nM)

P. COc1cc2nn([C@H]3CC[C@H](N(C)C(C)=O)C[C@H]3C)cc2cc1C(=O)Nc1cccn(C)c1=O [Example 5]
Q. COc1cc2nn([C@H]3CC[C@H](N(C)C(=O)[C@@H](C)O)CC3)cc2cc1C(=O)Nc1cccn(CC#N)c1=O [Example 10]
Data request: Looking only at measured IC50, which entry is lower, P or Q ? Respond with the label that goes with your answer.
Data returned: P

P. COc1cc2nn([C@H]3CC[C@H](N(C)C(=O)[C@@H](C)O)CC3)cc2cc1C(=O)Nc1cccn(C2COC2)c1=O [Example 13]
Q. COc1cc2nn([C@@H]3CCC(N(C)C(C)=O)C[C@H]3C)cc2cc1C(=O)Nc1cccn(C)c1=O (single isomer, unassigned) [Example 3]
Data request: Looking only at measured IC50, which entry is lower, P or Q ? Respond with the label that goes with your answer.
Data returned: Q

----------
Below, each of the compounds is paired with its reported fraction unbound at 18 h, 5 μM value.
# TEST_NAME: Human plasma protein binding, equilibrium dialysis (RED device)
# Type: in vitro ADME
# EXPERIMENTAL_CONDITIONS: human, plasma, pH 7.4

Data request: What value of fraction unbound at 18 h, 5 μM has been reported for the following compound? CC(C)NCC(O)COc1cccc2ccccc12 (stereo not drawn) [Propranolol]
Data returned: ~0.3

Data request: Further, for COCCc1ccc(OCC(O)CNC(C)C)cc1 (stereo not drawn) [Metoprolol] ?
Data returned: ~0.9

Data request: Further, for CC(=O)CC(c1ccccc1)c1c(O)c2ccccc2oc1=O (stereo not drawn) [Warfarin] ?
Data returned: ~0.01
